Hello, the source for this data is PubChem BioAssay (NCI), in case you need it.

System: NCI/ADR-RES ovarian
Assay: NCI-60 one-dose screen, 48 h
Details: 10 µM unless noted
This is part of a sample that, as a whole, favours compounds with a hit. Of some 83,000 tested, about 20% had one in any assay. Activity calls are given as the source filed them. The calls were made as follows: active = growth percent below 10; inactive = the rest.
Write down one outcome, taken from active, inactive

These solved cases illustrate the format of a correct answer.
| molecule | assigned-category |
| --- | --- |
| CC(C)(C)CC(C)(C)N(CSc1ccc(Cl)cc1)CSc1ccc(Cl)cc1 | inactive |
| COc1cccc(Nc2nc(NCCO)c3ccccc3n2)c1 | inactive |

Task: In this assay, the call recorded for "COc1ccc(-c2nc(Nc3ccc(F)cc3)nc(Nc3ccc4c(c3)nc(C)n4Cc3ccccc3)n2)cc1" was what?
Result: inactive

Task: In this assay, the call recorded for CC1=CN2C(=NC3=C(CCCC/C3=C\c3ccccc3)C2c2ccccc2)S1 (stereo unspecified) was what?
Result: inactive

Task: In this assay, the call recorded for "Cn1c(=O)c(S(=O)(=O)c2ccccc2)cc2ccc3c(cnn3-c3ccc(Cl)cc3)c21" was what?
Result: inactive

Task: In this assay, the call recorded for "Cc1ccccc1-n1nnc(C(=O)Nc2ccc(-c3ccccc3)cn2)c1C" was what?
Result: inactive

Task: In this assay, the call recorded for "CCCCCCCC/C=C\CCCCCCCCOc1cccc(CC(=O)NCC[N+](C)(C)C)c1" was what?
Result: inactive

Task: In this assay, the call recorded for "COc1ccc(-c2c3c(N)c4c(nc3nc3c2c(C)nn3-c2ccccc2)CCCC4)cc1" was what?
Result: inactive

Task: In this assay, the call recorded for "COc1ncnc2c1ncn2C/C(Br)=C(\Br)CCl" was what?
Result: active

Task: In this assay, the call recorded for "O=c1ccc2ccccc2o1" was what?
Result: inactive

Task: In this assay, the call recorded for "CCCCCCCCCCCCCCn1c2ccccc2c2c3c(c4c5cc(OC)ccc5oc4c21)C(=O)NC3=O" was what?
Result: inactive

* * *

System: LOX IMVI melanoma
Test: NCI-60 one-dose screen, 48 h (100 = growth as untreated, 0 = no growth, -100 = all killed)
Details: 10 µM unless noted
This is part of a sample that, as a whole, favours compounds with a hit. Of some 83,000 tested, about 20% had one in any assay.
# label = 1 if growth >= 90% else -1

These solved cases illustrate the format of a correct answer.
| compound | assigned-category |
| --- | --- |
| COc1ccc(C(=O)C2=CC(=O)C(=O)C2)cc1OC | 1 |
| O=S(=O)(Nc1ccccc1Cl)c1ccc(-c2cnc(C3CC3)o2)cc1 | -1 |
| CCCCCCCC/C=C\CCCCCCCCOc1cccc(CC(=O)NCC[N+]2(C)CCCC2)c1 | -1 |
| COc1ccc(/C=C2\SC(=O)N(CN3CCN(c4cc5c(cc4F)c(=O)c(C(=O)O)cn5C4CC4)CC3)C2=O)cc1 | -1 |

Task: Determine whether measured growth meets or exceeds 90% for O=C1CC2c3cc(-c4cc5ccccc5o4)ccc3CCN2C(=O)N1c1ccccc1 (stereo unspecified)
Result: 1
